Measured values drawn from patent US12036230B2 for this set.

Consider the following compounds; for each one, report its IC50.
experimental.system: Human recombinant PTEN (Homo sapiens)
Construct: host or cells: Escherichia coli
assay.protocol: PTEN inhibitor screen: conversion of DiFMUP to DiFMU by recombinant PTEN, spectrofluorometric
Format: biochemical
reported.conditions: 100 μM DiFMUP, 37° C., 1 hour, pH 8.5; read-out: IC50

Incoming: So what's the measured IC50 for this one? `Cc1ccccc1-c1cc(N2CCN(C)CC2)ncc1N(C)C(=O)C(C)(C)c1cc(C(F)(F)F)cc(C(F)(F)F)c1`
Outgoing: > 10 µM

Incoming: Data request, read-out IC50, for `C#C[C@]1(O)CC[C@H]2[C@@H]3CCC4=CC(=O)CC[C@@H]4[C@H]3C(=C)C[C@@]21CC`
Outgoing: > 10 µM

Incoming: Name the recorded IC50 for Cc1cc(-c2ccc(/N=N/c3c(S(=O)(=O)O)cc4cc(S(=O)(=O)O)cc(N)c4c3O)c(C)c2)ccc1/N=N/c1c(S(=O)(=O)O)cc2cc(S(=O)(=O)O)cc(N)c2c1O [trypan blue free acid] .
Outgoing: 4.41 µM

Incoming: State the recorded IC50 for this entry: `C=C1CC[C@H]2[C@@H](/C=C(\C)C(=O)[C@@]3(OC(C)=O)C[C@H](C)[C@H](OC(=O)c4ccccc4)[C@@H]3[C@H]1OC(C)=O)C2(C)C`
Outgoing: > 10 µM

Incoming: # input compound: `CC(C)c1c(C(=O)Nc2ccccc2)c(-c2ccccc2)c(-c2ccc(F)cc2)n1CC[C@@H](O)C[C@@H](O)CC(=O)O` ; wanted: its IC50
Outgoing: > 10 µM

Incoming: Recorded IC50 of CCCCCCCC/C=C\CCCCCCCC(=O)O[C@H](COC(=O)CCCCCCCCCCCCCCC)COP(=O)(O)OCC(O)CO (mixture of isomers) , please.
Outgoing: 1.79 µM

----------
For each of the molecules below, state its pIC50.
experimental.system: Human recombinant PTEN (Homo sapiens, UniProt P60484)
Construct: host or cells: Escherichia coli
Sequence (P60484 whole entry): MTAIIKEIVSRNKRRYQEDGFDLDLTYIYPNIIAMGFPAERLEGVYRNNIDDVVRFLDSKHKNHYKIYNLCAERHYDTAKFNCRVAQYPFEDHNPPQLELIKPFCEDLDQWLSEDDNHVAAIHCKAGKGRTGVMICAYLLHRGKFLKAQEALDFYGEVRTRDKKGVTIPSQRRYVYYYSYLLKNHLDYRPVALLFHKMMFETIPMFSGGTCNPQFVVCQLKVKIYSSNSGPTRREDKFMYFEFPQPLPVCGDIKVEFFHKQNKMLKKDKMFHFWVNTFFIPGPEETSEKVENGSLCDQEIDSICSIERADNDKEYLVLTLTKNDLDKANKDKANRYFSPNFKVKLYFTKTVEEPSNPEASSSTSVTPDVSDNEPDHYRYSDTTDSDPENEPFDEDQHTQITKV
assay.protocol: PTEN inhibitor screen: conversion of DiFMUP to DiFMU by recombinant PTEN, spectrofluorometric
Assay type: biochemical
reported.conditions: 100 μM DiFMUP, 37° C., 1 hour, pH 8.5; read-out: IC50
pIC50: −log10 of the molar value.

Incoming: What does the data say about its pIC50? Entry: Clc1ccc(C(c2ccccc2Cl)C(Cl)Cl)cc1 (stereo not shown) [mitotane]
Outgoing: < 5.00

Incoming: Given CO[C@H]1O[C@H](COS(=O)(=O)O)[C@@H](O[C@@H]2O[C@@H](C(=O)O)[C@@H](O[C@H]3O[C@H](COS(=O)(=O)O)[C@@H](O[C@@H]4O[C@H](C(=O)O)[C@@H](O[C@H]5O[C@H](COS(=O)(=O)O)[C@@H](O)[C@H](O)[C@H]5NS(=O)(=O)O)[C@H](O)[C@H]4O)[C@H](OS(=O)(=O)O)[C@H]3NS(=O)(=O)O)[C@H](O)[C@H]2OS(=O)(=O)O)[C@H](O)[C@H]1NS(=O)(=O)O [Fondaparinux] , state its recorded pIC50.
Outgoing: 5.56

Incoming: Recorded pIC50 of CCC1=C[C@@H]2CN(C1)Cc1c([nH]c3ccccc13)[C@@](C(=O)OC)(c1cc3c(cc1OC)N(C)[C@H]1[C@@](O)(C(=O)OC)[C@H](OC(C)=O)[C@]4(CC)C=CCN5CC[C@]31[C@@H]54)C2 [vinorelbine] , please.
Outgoing: < 5.00

Incoming: Sample CCc1c(Cl)c(O)c(Cl)c(O)c1C(=O)O[C@H]1[C@H](O)[C@H](OC)[C@H](OC/C2=C\C=C\C[C@H](O)/C(C)=C/[C@H](CC)[C@@H](O[C@@H]3OC(C)(C)[C@@H](OC(=O)C(C)C)[C@H](O)[C@@H]3O)/C(C)=C/C(C)=C/C[C@@H]([C@@H](C)O)OC2=O)O[C@@H]1C [fidaxomicin] — what was its pIC50?
Outgoing: < 5.00

----------
Can you tell me inhibition at 10 µM for the items I'm about to list?
experimental.system: Human recombinant PTEN (Homo sapiens, UniProt P60484)
Construct: host or cells: Escherichia coli
assay.protocol: PTEN inhibitor screen: conversion of DiFMUP to DiFMU by recombinant PTEN, spectrofluorometric
Format: biochemical
reported.conditions: candidate PTEN inhibitor at 10 μM; 100 μM DiFMUP, 37° C., 1 hour, pH 8.5; read-out: % Inhibition
A number alone suffices; assume %.

Incoming: I'd like to know its inhibition at 10 µM. The molecule in question is C[C@@H]1C/C=C/C=C/C=C/C=C/[C@H](O[C@@H]2O[C@H](C)[C@@H](O)[C@H](N)[C@@H]2O)C[C@@H]2O[C@](O)(C[C@@H](O)C[C@H]3O[C@@H]3/C=C/C(=O)O1)C[C@H](O)[C@H]2C(=O)O [natamycin]
Outgoing: 3

Incoming: Form field: reported inhibition at 10 µM of CO[C@H]1C[C@@H]2CC[C@@H](C)[C@@](O)(O2)C(=O)C(=O)N2CCCC[C@H]2C(=O)O[C@H]([C@H](C)C[C@@H]2CC[C@@H](O)[C@H](OC)C2)CC(=O)[C@H](C)/C=C(\C)[C@@H](O)[C@@H](OC)C(=O)[C@H](C)C[C@H](C)/C=C/C=C/C=C/1C [sirolimus]
Outgoing: 3

Incoming: Entry CO[C@H]1C[C@@H]2CC[C@@H](C)[C@@](O)(O2)C(=O)C(=O)N2CCCC[C@H]2C(=O)O[C@H]([C@H](C)C[C@@H]2CC[C@@H](OCCO)[C@H](OC)C2)CC(=O)[C@H](C)/C=C(\C)[C@@H](O)[C@@H](OC)C(=O)[C@H](C)C[C@H](C)/C=C/C=C/C=C/1C [Everolimus] : reported inhibition at 10 µM = ?
Outgoing: 33

Incoming: Quick one: inhibition at 10 µM of CC(=O)O[C@H]1C[C@@H]2CC[C@@H]3[C@H](CC[C@@]4(C)[C@H]3C[C@H]([N+]3(C)CCCCC3)[C@@H]4OC(C)=O)[C@@]2(C)C[C@@H]1[N+]1(C)CCCCC1 [pancuronium] ?
Outgoing: 11

Incoming: Reported inhibition at 10 µM, molecule O=C1CCCC(=O)C1C(=O)c1ccc(C(F)(F)F)cc1[N+](=O)[O-] [nitisinone] : ____
Outgoing: 1

----------
experimental.system: Human recombinant PTEN (Homo sapiens, UniProt P60484)
Construct: host or cells: Escherichia coli
assay.protocol: PTEN inhibitor screen: conversion of DiFMUP to DiFMU by recombinant PTEN, spectrofluorometric
Format: biochemical
reported.conditions: 100 μM DiFMUP, 37° C., 1 hour, pH 8.5; read-out: IC50
pIC50: −log10 of the molar value.
measured.quantity: pIC50

Incoming: Param readout= pIC50; system= Human recombinant PTEN (Homo sapiens, UniProt P60484); entry= CCCCCCCCCCCCCC(=O)OCC(COP(=O)(O)OCC(O)CO)OC(=O)CCCCCCCCCCCCC (racemic) ; returns value.
Outgoing: 5.40

Incoming: Write down the reported pIC50 of Cc1cc2nc3c(=O)[nH]c(=O)nc-3n(C[C@H](O)[C@H](O)[C@H](O)COP(=O)(O)OP(=O)(O)OC[C@H]3O[C@@H](n4cnc5c(N)ncnc54)[C@H](O)[C@@H]3O)c2cc1C [flavin adenine dinucleotide] , test system: Human recombinant PTEN (Homo sapiens, UniProt P60484).
Outgoing: < 5.00

Incoming: Record lookup: for Human recombinant PTEN (Homo sapiens, UniProt P60484), what pIC50 belongs to CC(C)c1nc(CN(C)C(=O)N[C@@H](CCN2CCOCC2)C(=O)N[C@H](CC[C@H](Cc2ccccc2)NC(=O)OCc2cncs2)Cc2ccccc2)cs1 [Cobicistat] ?
Outgoing: < 5.00

Incoming: Which measured pIC50 belongs to `CO[C@H]1C[C@@H]2CC[C@@H](C)[C@@](O)(O2)C(=O)C(=O)N2CCCC[C@H]2C(=O)O[C@H]([C@H](C)C[C@@H]2CC[C@@H](OCCO)[C@H](OC)C2)CC(=O)[C@H](C)/C=C(\C)[C@@H](O)[C@@H](OC)C(=O)[C@H](C)C[C@H](C)/C=C/C=C/C=C/1C` , tested on Human recombinant PTEN (Homo sapiens, UniProt P60484)?
Outgoing: < 5.00

Incoming: Lab note: need pIC50 with Human recombinant PTEN (Homo sapiens, UniProt P60484) for entry `O=C(OC[C@H]1O[C@@H](OC(=O)c2cc(O)c(O)c(OC(=O)c3cc(O)c(O)c(O)c3)c2)[C@H](OC(=O)c2cc(O)c(O)c(OC(=O)c3cc(O)c(O)c(O)c3)c2)[C@@H](OC(=O)c2cc(O)c(O)c(OC(=O)c3cc(O)c(O)c(O)c3)c2)[C@@H]1OC(=O)c1cc(O)c(O)c(OC(=O)c2cc(O)c(O)c(O)c2)c1)c1cc(O)c(O)c(OC(=O)c2cc(O)c(O)c(O)c2)c1` , please look it up.
Outgoing: 6.47

Incoming: Notebook entry, Human recombinant PTEN (Homo sapiens, UniProt P60484) assay: pIC50 of `O=C(O)CN(CC(=O)O)Cc1cc2c(cc1O)Oc1cc(O)c(CN(CC(=O)O)CC(=O)O)cc1C21OC(=O)c2ccccc21` = ?
Outgoing: < 5.00

Incoming: Value wanted: pIC50 (Human recombinant PTEN (Homo sapiens, UniProt P60484)) of entry `O=C1CCCC(=O)C1C(=O)c1ccc(C(F)(F)F)cc1[N+](=O)[O-]`
Outgoing: < 5.00
